Assay: Monitoring of the plasma concentration of the main oligosaccharides of a VLMWH in human volunteers (plasma filtration + anion-exchange HPLC)
Type: in vivo
Conditions: 4 h after administration of VLMWH (2500 Da) 1.4 mg/kg
Quantity name: plasma concentration (nM)
Express it in nM; write the number only.

Record excerpt, results attached:
[
  {
    "Compound": "O=C(O)C1=CC(O)C(OS(=O)(=O)O)C(OC2C(COS(=O)(=O)O)OC(O)C(NS(=O)(=O)O)C2O)O1 (stereo not shown)",
    "plasma concentration [nM]": 70
  },
  {
    "Compound": "O=C(O)C1=CC(O)C(OS(=O)(=O)O)C(OC2C(COS(=O)(=O)O)OC(OC3C(C(=O)O)OC(OC4C(COS(=O)(=O)O)OC(OC5C(C(=O)O)OC(OC6C(COS(=O)(=O)O)OC(O)C(NS(=O)(=O)O)C6O)C(OS(=O)(=O)O)C5O)C(NS(=O)(=O)O)C4O)C(OS(=O)(=O)O)C3O)C(NS(=O)(=O)O)C2O)O1 (stereo not shown)",
    "plasma concentration [nM]": 10
  },
  {
    "Compound": "CC(=O)NC1C(OC2C(C(=O)O)OC(OC3C(COS(=O)(=O)O)OC(OC4C(C(=O)O)OC(OC5C(COS(=O)(=O)O)OC(O)C(NS(=O)(=O)O)C5O)C(OS(=O)(=O)O)C4O)C(NS(=O)(=O)O)C3OS(=O)(=O)O)C(O)C2O)OC(COS(=O)(=O)O)C(OC2OC(C(=O)O)=CC(O)C2O)C1O (stereo not shown)",
    "plasma concentration [nM]": 100
  }
]

Now for the compound whose plasma concentration we want.
Input line: Which plasma concentration value is on record for CC(=O)NC1C(OC2C(C(=O)O)OC(OC3C(COS(=O)(=O)O)OC(OC4C(C(=O)O)OC(OC5C(COS(=O)(=O)O)OC(OC6C(C(=O)O)OC(OC7C(COS(=O)(=O)O)OC(O)C(NS(=O)(=O)O)C7O)C(OS(=O)(=O)O)C6O)C(NS(=O)(=O)O)C5O)C(OS(=O)(=O)O)C4O)C(NS(=O)(=O)O)C3OS(=O)(=O)O)C(O)C2O)OC(COS(=O)(=O)O)C(OC2OC(C(=O)O)=CC(O)C2O)C1O (stereo not shown) ?
Output line: 20

meta.source: patent US7575930B2
